Tested on: HeLa
Assay: cells
Conditions: Homo sapiens, 72 h
Description: Cytotoxicity against human HeLa cells after 72 hrs by MTT assay
For each record, write down the corresponding pIC50.
// pIC50: -log10(molar conc.)

Ask: I am curious: what pIC50 value has been reported for COc1cc([C@@H]2c3cc4c(cc3[C@@H](O[C@@H]3O[C@@H]5CO[C@@H](C)O[C@H]5[C@H](O)[C@H]3O)[C@H]3COC(=O)[C@H]23)OCO4)cc(OC)c1O [ETOPOSIDE] ?
Reply: 4.02

Ask: I am curious: what pIC50 value has been reported for COc1cc([C@@H]2c3cc4c(cc3[C@@H](Nc3nnc(-c5ccco5)o3)[C@H]3COC(=O)[C@H]23)OCO4)cc(OC)c1OC ?
Reply: 4.23

Ask: I am curious: what pIC50 value has been reported for COc1cc([C@@H]2c3cc4c(cc3[C@@H](Nc3nnc(C)o3)[C@H]3COC(=O)[C@H]23)OCO4)cc(OC)c1O ?
Reply: 4.73

Ask: I am curious: what pIC50 value has been reported for COc1cc([C@@H]2c3cc4c(cc3[C@@H](Nc3nnc(-c5ccccc5)o3)[C@H]3COC(=O)[C@H]23)OCO4)cc(OC)c1OC ?
Reply: 4.07

Ask: I am curious: what pIC50 value has been reported for COc1cc([C@@H]2c3cc4c(cc3[C@@H](Nc3nnc(-c5cccs5)o3)[C@H]3COC(=O)[C@H]23)OCO4)cc(OC)c1OC ?
Reply: 4.37

Ask: I am curious: what pIC50 value has been reported for COc1cc([C@@H]2c3cc4c(cc3[C@@H](Nc3nnc(C)o3)[C@H]3COC(=O)[C@H]23)OCO4)cc(OC)c1OC ?
Reply: 5.57

Ask: I am curious: what pIC50 value has been reported for O=c1[nH]cc(F)c(=O)[nH]1 ?
Reply: 4.80

Ask: I am curious: what pIC50 value has been reported for COc1ccc(-c2nnc(N[C@@H]3c4cc5c(cc4[C@@H](c4cc(OC)c(OC)c(OC)c4)[C@H]4C(=O)OC[C@@H]43)OCO5)o2)cc1 ?
Reply: 4.75

Ask: I am curious: what pIC50 value has been reported for COc1cc([C@@H]2c3cc4c(cc3[C@H](O)[C@H]3COC(=O)[C@H]23)OCO4)cc(OC)c1OC ?
Reply: 5.12
